These data points were gathered from the kinase profiling compilation of Christmann-Franck et al. (2016).

Can you tell me kinase still bound, per cent of control for the items I'm about to list?
experimental_target: MAPK10 (human)
test_description: KINOMEscan competition binding
test_settings: compound 1.0 µM
Respond with the bare value in %.

kinase still bound, per cent of control recorded for this molecule, Cc1cc(NC(=O)c2cccc(NC(=O)/C=C/CN(C)C)c2)ccc1Nc1nccc(-c2cccnc2)n1 , is 0

Looking up CN(C)C/C=C/C(=O)Nc1cccc(C(=O)Nc2ccc(Nc3nccc(-c4c(-c5ccccc5)nn5ccccc45)n3)cc2)c1 , I found its kinase still bound, per cent of control recorded as 0

Item: CN(C)C/C=C/C(=O)Nc1cccc(C(=O)Nc2ccc(Nc3nccc(/C(C#N)=C4\Nc5ccccc5S4)n3)cc2)c1 | kinase still bound, per cent of control: 0.05

// kinase still bound, per cent of control lookup, molecule = CN(C)C/C=C/C(=O)Nc1cccc(C(=O)Nc2ccc(Nc3nccc(-c4cccnc4)n3)cc2)c1 , result: 0
